// CC50 lookup, one value per entry
- System: MT-4
- assayProtocol: Cytotoxicity in mock-infected MT-4 cells (MTT)

compound: N#Cc1ccc(Nc2nc(NO)nc(Sc3c(Cl)cccc3Cl)n2)cc1 [Compound 20]
CC50: 11.7 µM
//
compound: CCc1cc(Br)cc(CC)c1Nc1nc(N)nc(Nc2ccc(C#N)cc2)n1 [Compound 64]
CC50: 46.5 µM
//
compound: Cc1cc(N)cc(C)c1Oc1nc(N)nc(Nc2ccc(C#N)cc2)n1 [Compound 78]
CC50: 47 µM

For the compound CC(=O)c1cc(Cl)cc(Cl)c1Oc1nc(N)nc(Nc2ccc(C#N)cc2)n1 [Compound 39] , report CC50.
< 10 µM

Fill in CC50 for record N#Cc1ccc(Nc2nc(N)nc(Nc3c(Cl)cccc3Cl)n2)cc1 [Compound 10]
6.1 µM

Quote CC50 reported for N#Cc1ccc(Nc2nc(N)nc(Nc3c(Cl)cc(Cl)cc3Cl)n2)cc1 [Compound 18] please.
45.6 µM

Return CC50 for the following compound: Cc1cc(C)c(Nc2nc(N)nc(Nc3ccc(C#N)cc3)n2)c(C)c1Br [Compound 15]
1.7 µM

State its CC50: N#Cc1ccc(Nc2nc(N)nc(Oc3c(F)cc(F)cc3F)n2)cc1 [Compound 44]
> 100 µM

Return CC50 for the following compound: Cc1cc(Nc2nc(N)nc(Nc3ccc(C#N)cc3)n2)c(Cl)cc1F [Compound 66]
> 99.9 µM

---

# Lookup of reported CC50 keyed by entry
- Test system: MT-4
- assayProtocol: Cytotoxicity in mock-infected MT-4 cells (MTT)
- conditionSet: concentration reducing absorbance of mock-infected MT-4 control by 50%, MTT
- Experimental: A rapid, sensitive and automated assay procedure was used for the in vitro evaluation of anti-HIV agents. An HIV-1 (wildtype IIIB) transformed T4-cell line, MT-4, which was previously shown (Koyanagi et al., Int. J Cancer, 36, 445-451, 1985) to be highly susceptible to and permissive for HIV infection, served as the target cell line. […] The percent protection achieved by the compound in HIV-infected cells was calculated by the following formula: [formula] […]

smilesRepr: N#Cc1ccc(Nc2nc(N)nc(Oc3c(F)c(F)c(O)c(F)c3F)n2)cc1
CC50: > 85.5 µM

Consider now this further molecule.
Answer with the recorded CC50 for the molecule listed here: Cc1cc(C)c(N=Nc2nc(N)nc(Nc3ccc(C#N)cc3)n2)c(C)c1
> 99.9 µM

---

- assayProtocol: Cytotoxicity in mock-infected MT-4 cells (MTT)
- conditionSet: human, mock-infected MT-4 cells
measuredAttribute: CC50 (µM)
Please give a number only; it is taken to be in µM.

Past entries and their recorded results:
smilesRepr: CC(=O)c1cc(C)c(Oc2nc(N)nc(Nc3ccc(C#N)cc3)n2)c(C)c1
CC50, µM: 32.1
//
smilesRepr: N#Cc1ccc(Nc2nc(N)nc(Nc3c(Cl)cc(Cl)cc3C(F)(F)F)n2)cc1
CC50, µM: 8.2
//
smilesRepr: CC(=O)c1cc(C)c2c(c1Oc1nc(N)nc(Nc3ccc(C#N)cc3)n1)CCC2
CC50, µM: 54.1
//
smilesRepr: N#Cc1ccc(Nc2nc(N)nc(Sc3ccc(Cl)cc3Cl)n2)cc1
CC50, µM: 57.3
//
smilesRepr: CCc1cccc(C)c1Nc1nc(N)nc(Nc2ccc(C#N)cc2)n1
CC50, µM: 8.1
//
smilesRepr: Cc1cc(C)c(Nc2nc(N)nc(Nc3ccc(C#N)cc3)n2)c(Cl)c1
CC50, µM: 48.5

Read off the recorded CC50 for CC(C)c1cc(Br)c(Nc2nc(N)nc(Nc3ccc(C#N)cc3)n2)c(Br)c1
47

Specify CC50 for Cc1cc(Br)cc(Cl)c1Nc1nc(N)nc(Nc2ccc(C#N)cc2)n1 and stop.
48

In one line, give reported CC50 of the entry Cc1ccc(C)c(Oc2nc(N)nc(Nc3ccc(C#N)cc3)n2)c1 .
34.9

---

The following compounds are shown together with reported CC50 values.
- System: MT-4
- assayProtocol: Cytotoxicity in mock-infected MT-4 cells (MTT)
Numbers only; they are read as µM.

smilesRepr: Cc1c(Br)c(C)c(Br)c(Oc2nc(N)nc(Nc3ccc(C#N)cc3)n2)c1Br
targetOfAssay: MT-4
CC50, µM: 8.1

Tell me its CC50 on MT-4: Cc1ccc(Sc2nc(N)nc(Nc3ccc(C#N)cc3)n2)c(C)c1
48.5

Find CC50 for N#Cc1ccc(Nc2nc(N)nc(Sc3cc(Cl)c(Cl)cc3Cl)n2)cc1 on MT-4 and write it down.
62.6

Report its CC50 with MT-4 as the test system: COC(=O)c1cc(OC)c(OC)c(OC)c1Nc1nc(N)nc(Nc2ccc(C#N)cc2)n1
99.6

Give CC50 only, for N#Cc1ccc(Nc2nc(N)nc(Nc3c(F)cc(F)cc3Br)n2)cc1 , using MT-4 data.
53.8

System MT-4. Read-out CC50. Item N#Cc1ccc(Nc2nc(N)nc(NNc3c(Cl)cc(Cl)cc3Cl)n2)cc1 . Report value.
27.8

Please report CC50 with MT-4 for item N#Cc1ccc(Nc2nc(N)nc(Nc3c(Cl)cc(C(F)(F)F)cc3Cl)n2)cc1 .
15.6

---

- Test system: MT-4
- assayProtocol: Cytotoxicity in mock-infected MT-4 cells (MTT)
Reported log10 CC50 values are given for each entry in this list.
Lab note - CC50 converted to log10 from values in µM.

Recorded log10 CC50, per entry:
smilesRepr: Cc1ccc(Cl)c(C)c1Nc1nc(N)nc(Nc2ccc(C#N)cc2)n1
targetOfAssay: MT-4
quantitativeReadout: 1.63

smilesRepr: Cc1cccc(C)c1Nc1nc(NO)nc(Nc2ccc(C#N)cc2)n1
targetOfAssay: MT-4
quantitativeReadout: 0.89

smilesRepr: N#Cc1ccc(Nc2nc(NO)nc(Nc3c(Cl)cccc3Cl)n2)cc1
targetOfAssay: MT-4
quantitativeReadout: 0.90

smilesRepr: N#Cc1ccc(Nc2nc(N)nc(Oc3c(Cl)cc(F)cc3Cl)n2)cc1
targetOfAssay: MT-4
quantitativeReadout: 1.72

Enter log10 CC50 (test system MT-4) for Cc1c(C)c(Oc2nc(N)nc(Nc3ccc(C#N)cc3)n2)c(Cl)c(C)c1Cl
0.40

---

Recorded CC50, one value per entry.
- Test system: MT-4
- assayProtocol: Cytotoxicity in mock-infected MT-4 cells (MTT)

// below: answered compounds
smilesRepr: N#Cc1ccc(Nc2nc(N)nc(Sc3ccc(F)cc3F)n2)cc1
targetOfAssay: MT-4
CC50: > 100 µM
--
smilesRepr: CC(=O)c1ccc(C)cc1Nc1nc(N)nc(Nc2ccc(C#N)cc2)n1
targetOfAssay: MT-4
CC50: > 100 µM

We next turn to a different compound, shown below.
Identify measured CC50 corresponding to N#Cc1ccc(Nc2nc(N)nc(Oc3ccc(Cl)cc3Cl)n2)cc1
> 100 µM

---

- assayProtocol: Cytotoxicity in mock-infected MT-4 cells (MTT)
- conditionSet: human, mock-infected MT-4 cells
- Procedure: A rapid, sensitive and automated assay procedure was used for the in vitro evaluation of anti-HIV agents. An HIV-1 (wildtype IIIB) transformed T4-cell line, MT-4, which was previously shown (Koyanagi et al., Int. J Cancer, 36, 445-451, 1985) to be highly susceptible to and permissive for HIV infection, served as the target cell line. […] The percent protection achieved by the compound in HIV-infected cells was calculated by the following formula: [formula] […]
measuredAttribute: CC50

Use the examples below as a reference point.
smilesRepr: Cc1cc(Br)cc(Cl)c1Oc1nc(N)nc(Nc2ccc(C#N)cc2)n1
CC50: > 10 µM

smilesRepr: N#Cc1ccc(Nc2nc(NO)nc(Nc3c(Cl)cc(Cl)cc3Cl)n2)cc1
CC50: 7.6 µM

smilesRepr: N#Cc1ccc(Nc2nc(N)nc(Oc3cccc4[nH]ccc34)n2)cc1
CC50: 59.6 µM

smilesRepr: Cc1cc([N+](=O)[O-])cc(C)c1Oc1nc(N)nc(Nc2ccc(C#N)cc2)n1
CC50: 12.2 µM

smilesRepr: N#Cc1ccc(Nc2nc(N)nc(Oc3c(Br)cc(Br)cc3Br)n2)cc1
CC50: > 10 µM

Let me know recorded CC50 for N#Cc1ccc(Nc2nc(N)nc(Sc3c(Cl)cccc3Cl)n2)cc1 , thanks.
40.6 µM

# return recorded CC50 for input Cc1cccc(Cl)c1Nc1nc(N)nc(Nc2ccc(C#N)cc2)n1
49.9 µM

Supply CC50 value. Item: Cc1cc(C)c(Nc2nc(NO)nc(Nc3ccc(C#N)cc3)n2)c(C)c1
6.3 µM

---

Recorded CC50 by entry
- System: MT-4
- assayProtocol: Cytotoxicity in mock-infected MT-4 cells (MTT)

# count of solved cases: 3
compound: Cc1c(Cl)cc(N)c(Oc2nc(N)nc(Nc3ccc(C#N)cc3)n2)c1Cl [Compound 81]
result: > 99.1 µM
//
compound: N#Cc1ccc(Nc2nc(N)nc(Oc3c(Cl)c(Cl)c(Cl)c(Cl)c3Cl)n2)cc1 [Compound 42]
result: > 10 µM
//
compound: N#Cc1ccc(Nc2nc(N)nc(Oc3c(Cl)cccc3Cl)n2)cc1 [Compound 1]
result: > 20 µM

Let me know recorded CC50 for N#Cc1ccc(Nc2nc(N)nc(Sc3ccc(F)cc3Cl)n2)cc1 [Compound 55] , thanks.
> 99.9 µM

Data origin: patent US6774235B2
